These data points were gathered from paper PMC10289903.

experiment: clinical; details: human, in vivo, 125 mg
Value Type: Cmax (nM)
Answers are plain numbers, in nM.

// sample C=CCn1c(=O)c2cnc(Nc3ccc(N4CCN(C)CC4)cc3)nc2n1-c1cccc(C(C)(C)O)n1 , its Cmax was 276

* * *

experiment: clinical; details: human, in vivo, 150 mg, Cmax, geometric LS mean (95% CI)
Value Type: Cmax (nM)
Give bare numbers, in nM.

// sample C=CCn1c(=O)c2cnc(Nc3ccc(N4CCN(C)CC4)cc3)nc2n1-c1cccc(C(C)(C)O)n1 , its Cmax was 464

* * *

details: human, in vivo, 300 mg
Value Type: Cmax (nM)
One number for each entry, in nM.

// sample C=CCn1c(=O)c2cnc(Nc3ccc(N4CCN(C)CC4)cc3)nc2n1-c1cccc(C(C)(C)O)n1 [adavosertib, Adavosertib] , its Cmax was 819
